Numbers sourced from paper PMC10035947.

Tested on: MALME-3M
ASSAY METHOD TEXT: NCI SRB assay
Type: cell-based, human
TEST PARAMETERS: 5-dose, read-out: LC50 (the source's name)

STRUCTURE AS SMILES: Cc1ccc(-c2nc(Nc3ccccc3C(=O)O)c3ccccc3n2)cc1
TEST TARGET: MALME-3M
CC50: < 100 µM

---

Test system: 59 human cancer cell lines representing nine tumour subpanels
ASSAY METHOD TEXT: NCI SRB assay, panel and subpanel summaries
TEST PARAMETERS: 1.00E-5 Molar, all cell lines
VALUE KIND: Mean Growth Percent (%)

COMPOUND: Cc1cccc(-c2nc(Nc3ccccc3C(=O)O)c3ccccc3n2)c1 [6a]
TEST TARGET: 59 human cancer cell lines representing nine tumour subpanels
VALUE KIND: Mean Growth Percent
REPORTED MEASUREMENT: 37.30
//
COMPOUND: COc1ccc(-c2nc(Nc3ccccc3C(=O)O)c3ccccc3n2)cc1 [6c]
TEST TARGET: 59 human cancer cell lines representing nine tumour subpanels
VALUE KIND: Mean Growth Percent
REPORTED MEASUREMENT: 48.18
//
COMPOUND: Cc1ccc(-c2nc(Nc3ccccc3C(=O)O)c3ccccc3n2)cc1 [6b]
TEST TARGET: 59 human cancer cell lines representing nine tumour subpanels
VALUE KIND: Mean Growth Percent
REPORTED MEASUREMENT: 15.81
//
COMPOUND: Cc1ccc(-c2nc(Nc3ccc(C(=O)O)cc3)c3ccccc3n2)cc1 [8b]
TEST TARGET: 59 human cancer cell lines representing nine tumour subpanels
VALUE KIND: Mean Growth Percent
REPORTED MEASUREMENT: 80.19
